Listed here: items and their measured kon.
Target System: T1, human IL-17A (human, UniProt Q16552 20-155, limits assumed)
T1 construct: Bought from R&D Systems; also called IL-17 antigen (human IL17A)
T1 sequence (looked up): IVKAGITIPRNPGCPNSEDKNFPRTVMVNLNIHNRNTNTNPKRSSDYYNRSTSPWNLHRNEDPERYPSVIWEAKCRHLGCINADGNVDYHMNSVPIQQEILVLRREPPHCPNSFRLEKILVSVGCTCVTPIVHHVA
Procedure Summary: BLI (Octet Red96), antibody captured on AHC biosensor, human IL-17A in solution, 1:1 model, 25 C
Property Name: kon (M⁻¹ s⁻¹)

Binder: PP10766 (antibody, human IgG4 S228P, kappa, V domains shown, Humanized, human IgG4/kappa; also called VH6667/VL6665) VH: EVQLVESGGGVVQPGRSLRLSCAASGFTFSTYGMSWVRQAPGKGLELVAIINHNGGSTFYPDSVKGRFTISRDNSKNTLYLQMNSLRAEDTAVYYCARDPRHDGYFFDYWGQGTLVTVSS VL: DIQMTQSPSSLSASVGDRVTITCQASEDIYDRLAWYQQKPGKAPKLLISGATSLETGVPSRFSGSGSGTDYTFTISSLQPEDIATYYCQQYWSVPWTFGGGTKVEIKR
Property Name: kon
Unit Name: M⁻¹ s⁻¹
Reported: 350000
//
Binder: PP10762 (antibody, human IgG4 S228P, kappa, V domains shown, Humanized, human IgG4/kappa; also called VH6665/VL6667) VH: EVQLVESGGGLVQPGGSLRLSCAASGFTFSTYGMSWVRQAPGKGLELVSIINHNGGSTFYPDSVKGRFTISRDNSKNTLYLQMNSLRAEDTAVYYCARDPRHDGYFFDYWGQGTLVTVSS VL: DIQMTQSPSSLSASVGDRVTITCRASEDIYDRLAWYQQKPGKAPNLLVSGATSLESGVPSRFSGSGSGKDYTLTISSLQPEDFATYYCQQYWSVPWTFGGGTKVEIKR
Property Name: kon
Unit Name: M⁻¹ s⁻¹
Reported: 440000
//
Binder: PP10763 (antibody, human IgG4 S228P, kappa, V domains shown, Humanized, human IgG4/kappa; also called VH6666/VL6665) VH: EVQLVESGGGLVQPGGSLRLSCAASGFTFSTYGMSWVRQAPGKGLELVAIINHNGGSTFYPDSVKGRFTVSRDNSKNTLYLQMNSLRAEDTAVYYCARDPRHDGYFFDYWGQGTLVTVSS VL: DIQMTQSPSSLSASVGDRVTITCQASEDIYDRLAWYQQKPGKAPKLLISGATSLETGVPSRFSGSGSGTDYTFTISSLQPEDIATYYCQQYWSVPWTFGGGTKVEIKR
Property Name: kon
Unit Name: M⁻¹ s⁻¹
Reported: 460000
//
Binder: PP10764 (antibody, human IgG4 S228P, kappa, V domains shown, Humanized, human IgG4/kappa; also called VH6666/VL6666) VH: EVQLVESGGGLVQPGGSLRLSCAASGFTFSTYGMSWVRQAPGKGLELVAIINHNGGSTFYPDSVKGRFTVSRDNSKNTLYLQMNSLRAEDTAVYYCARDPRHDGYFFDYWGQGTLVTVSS VL: DIQMTQSPSSLSASVGDRVTITCQASEDIYDRLAWYQQKPGKAPKLLISGATSLETGVPSRFSGSGSGKDYTFTISSLQPEDIATYYCQQYWSVPWTFGGGTKVEIKR
Property Name: kon
Unit Name: M⁻¹ s⁻¹
Reported: 450000
